# assayed_system: Cytochrome P450 2C19 (Homo sapiens)
# Sequence (P33261 whole entry): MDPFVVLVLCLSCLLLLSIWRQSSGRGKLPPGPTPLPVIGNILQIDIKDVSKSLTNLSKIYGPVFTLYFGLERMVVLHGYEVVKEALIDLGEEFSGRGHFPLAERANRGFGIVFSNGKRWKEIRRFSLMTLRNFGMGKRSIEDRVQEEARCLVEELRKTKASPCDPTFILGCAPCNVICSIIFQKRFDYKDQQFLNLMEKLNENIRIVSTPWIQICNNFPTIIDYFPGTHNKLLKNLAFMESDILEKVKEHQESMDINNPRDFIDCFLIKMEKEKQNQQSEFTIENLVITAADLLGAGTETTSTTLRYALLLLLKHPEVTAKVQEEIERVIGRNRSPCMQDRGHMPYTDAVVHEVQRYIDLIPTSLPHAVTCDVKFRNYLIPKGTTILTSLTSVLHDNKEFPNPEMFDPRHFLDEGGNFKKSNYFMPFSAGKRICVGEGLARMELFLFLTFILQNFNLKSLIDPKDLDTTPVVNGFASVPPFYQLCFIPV
pIC50: −log10 of the molar value.
measured_property: pIC50

1) O=C(O)C1CN(Cc2ccc(-c3noc(-c4onc(-c5ccccc5)c4C(F)(F)F)n3)cc2)C1 < 4.40

###

# assayed_system: Cytochrome P450 2D6 (Homo sapiens, UniProt P10635)
# Sequence (P10635 whole entry): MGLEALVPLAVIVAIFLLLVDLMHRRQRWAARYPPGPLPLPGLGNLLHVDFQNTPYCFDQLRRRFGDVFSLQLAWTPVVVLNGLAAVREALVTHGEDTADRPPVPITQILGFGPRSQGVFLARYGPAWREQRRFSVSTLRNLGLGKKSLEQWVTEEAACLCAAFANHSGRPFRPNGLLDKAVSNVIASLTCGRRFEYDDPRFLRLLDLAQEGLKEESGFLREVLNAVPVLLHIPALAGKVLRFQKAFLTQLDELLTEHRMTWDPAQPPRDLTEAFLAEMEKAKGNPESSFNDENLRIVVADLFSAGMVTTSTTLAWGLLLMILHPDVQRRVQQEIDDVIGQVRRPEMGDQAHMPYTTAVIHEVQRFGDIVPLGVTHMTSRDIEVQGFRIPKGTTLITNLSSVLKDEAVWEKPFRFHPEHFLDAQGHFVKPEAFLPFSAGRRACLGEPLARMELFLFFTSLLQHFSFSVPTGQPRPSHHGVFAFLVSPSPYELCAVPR
measured_property: IC50

1. O=C(O)C1CN(Cc2ccc(-c3noc(-c4onc(-c5ccccc5)c4C(F)(F)F)n3)cc2)C1 > 40 µM

###

# Species: Homo sapiens
# test: Selectivity ratio of EC50 for human S1P3 receptor to EC50 for human S1P1 receptor
Friendly reminder: Ratio EC50 below 1000 is yes, at or above is no.

1. CCCc1c(-c2nc(-c3ccc(CN4CC(C(=O)O)C4)cc3)no2)noc1-c1ccccc1 no
2. CC(C)(C)c1c(-c2nc(-c3ccc(CN4CC(C(=O)O)C4)cc3)no2)noc1-c1ccccc1 yes
3. Cc1c(-c2nc(-c3ccc(CN4CC(C(=O)O)C4)cc3)no2)noc1-c1ccccc1 no
4. CCc1c(-c2nc(-c3ccc(CN4CC(C(=O)O)C4)cc3)no2)noc1-c1ccccc1 no
5. CC(C)Cc1c(-c2nc(-c3ccc(CN4CC(C(=O)O)C4)cc3)no2)noc1-c1ccccc1 no
6. O=C(O)C1CN(Cc2ccc(-c3noc(-c4onc(-c5ccccc5)c4C(F)(F)F)n3)cc2)C1 no
7. O=C(O)C1CN(Cc2ccc(-c3noc(-c4noc(-c5ccccc5)c4C4CC4)n3)cc2)C1 yes
8. CC(C)Cc1onc(-c2nc(-c3ccc(CN4CC(C(=O)O)C4)cc3)no2)c1C(F)(F)F no
9. O=C(O)C1CN(Cc2ccc(-c3noc(-c4noc(-c5ccccc5)c4-c4ccccc4)n3)cc2)C1 yes
